Tested on: ES6
assay-procedure: Cell proliferation assay and IC50 measurement (PrestoBlue)
Type: cell-based
measurement-context: PrestoBlue cell viability
recorded-metric: IC50 (nM)
// return numeric value only (unit: nM, not printed)

[Q] Give a short answer stating reported IC50 for `Clc1ccc(CNc2nc(NC3CCCC3)nc3ccccc23)cc1Cl` .
[A] 2840

* * *

experimental-system: SMARCA2 (Homo sapiens, UniProt P51531)
Construct: The SMARCA2-1 gene (amino acids 437-1493) encompassing all domains; made in house; host or cells: expiSF9 insect cells (baculovirus, pFASTBac1)
Sequence (P51531 437-1493): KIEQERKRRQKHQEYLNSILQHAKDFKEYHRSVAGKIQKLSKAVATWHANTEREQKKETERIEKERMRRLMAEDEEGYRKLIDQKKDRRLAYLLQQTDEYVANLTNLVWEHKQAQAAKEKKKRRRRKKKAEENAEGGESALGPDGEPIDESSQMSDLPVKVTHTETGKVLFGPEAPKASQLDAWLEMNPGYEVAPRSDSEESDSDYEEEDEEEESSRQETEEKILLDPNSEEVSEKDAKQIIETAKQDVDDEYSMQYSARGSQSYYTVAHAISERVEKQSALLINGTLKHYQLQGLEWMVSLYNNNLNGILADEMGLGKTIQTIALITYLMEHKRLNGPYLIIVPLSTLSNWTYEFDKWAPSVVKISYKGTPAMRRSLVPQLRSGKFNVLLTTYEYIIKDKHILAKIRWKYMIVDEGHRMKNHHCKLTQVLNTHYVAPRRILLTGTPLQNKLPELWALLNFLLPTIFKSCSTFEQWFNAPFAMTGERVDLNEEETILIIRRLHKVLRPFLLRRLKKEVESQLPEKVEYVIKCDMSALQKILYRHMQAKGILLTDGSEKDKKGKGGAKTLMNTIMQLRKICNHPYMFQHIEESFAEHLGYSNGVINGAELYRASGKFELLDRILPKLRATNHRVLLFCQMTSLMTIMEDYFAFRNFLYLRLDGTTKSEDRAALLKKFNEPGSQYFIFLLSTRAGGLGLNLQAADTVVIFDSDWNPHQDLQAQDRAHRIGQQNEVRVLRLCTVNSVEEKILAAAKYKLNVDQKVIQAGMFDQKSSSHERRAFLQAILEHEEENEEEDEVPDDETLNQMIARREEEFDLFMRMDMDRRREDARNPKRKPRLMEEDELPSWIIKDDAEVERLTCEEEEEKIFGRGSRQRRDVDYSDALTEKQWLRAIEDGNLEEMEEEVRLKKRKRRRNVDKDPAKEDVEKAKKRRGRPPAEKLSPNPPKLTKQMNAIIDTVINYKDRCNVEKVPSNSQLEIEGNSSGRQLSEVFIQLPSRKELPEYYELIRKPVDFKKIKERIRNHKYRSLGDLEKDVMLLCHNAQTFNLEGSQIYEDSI
assay-procedure: Secondary ATPase assay
Type: biochemical
recorded-metric: pIC50
Formally, pIC50 is defined as -log10 of the concentration c, with c in mol/L.

[Q] Give a short answer stating reported pIC50 for Clc1ccc(CNc2nc(NC3CCCC3)nc3ccccc23)cc1Cl [Compound 8] .
[A] 5.30
